- Test system: DLD-1 colon
- ASSAY_COMMENT: NCI tumour cell line growth inhibition, 48 h
Measured TGI values are reported for all entries that follow.
RESULT_TYPE: TGI

[[record]]
compound = "N#Cc1cccc(/C=N/N=C(\\N)NO)c1"
value_measured = "> 100 µM"

[[record]]
compound = "COc1ccc(C2ON(c3cccc(C)n3)CC=C2C)cc1 (stereo not given)"
value_measured = "> 100 µM"

[[record]]
compound = "Nc1nc2c3nc(Nc4ccccc4)sc3nc(=O)n2c2sc(Nc3ccccc3)nc12"
value_measured = "> 100 µM"

[[record]]
compound = "CC(=O)C1=C(O)CC2CC3c4[nH]c5ccccc5c4CCN3CC2C1 (stereo not given)"
value_measured = "> 100 µM"

[[record]]
compound = "O=Cc1c(O)c(C(=O)Nc2ccc3[nH]c(=O)[nH]c3c2)cc2ccccc12"
value_measured = "> 100 µM"

[[record]]
compound = "COc1ccc(OCC(=O)O)c(C(=O)CCC(=O)O)c1"
value_measured = "> 100 µM"

[[record]]
compound = "C=C(c1ccccc1)[C@@]1(O)CC[C@@H]1N(CC#N)Cc1ccccc1"
value_measured = "36.4 µM"

[[record]]
compound = "COC(C)(C)C/C=C/C(C)=C/C=C/C(C)=C\\C=C\\C(C)=C\\C=C\\C=C(C)\\C=C\\C=C(C)\\C=C\\C=C(C)\\C=C\\CC(C)(C)OC"
value_measured = "> 150 µg/mL"

[[record]]
compound = "CC(=O)O[C@H]1C(=O)[C@@]2(C)C(C(OC(=O)c3ccccc3)C3[C@@H](O)C(OC(=O)[C@@H](O)[C@H](NC(=O)c4ccccc4)c4ccc(C(F)(F)F)cc4)C(C)=C1C3(C)C)[C@]1(OC(C)=O)CO[C@@H]1C[C@@H]2O (stereo not given in full)"
value_measured = "> 25 µM"

[[record]]
compound = "O=C1c2ccc(O)c(O)c2C(=O)c2c(O)ccc(O)c21"
value_measured = "> 100 µM"

[[record]]
compound = "CC(C)(c1ccccc1)c1ccc(OC#N)cc1"
value_measured = "> 62.5 µM"

[[record]]
compound = "COC(=O)c1c2cccccc-2c(Cc2c3cccccc-3c(C(=O)OC)c2O)c1O"
value_measured = "> 100 µM"

[[record]]
compound = "N#CC1CCCCCCCCCCC(=O)N(CCCl)C1=O (stereo not given)"
value_measured = "> 100 µM"

[[record]]
compound = "Cc1cc(Cl)ccc1NC(=O)CC1SC(=Nc2ccccc2Cl)NC1=O (stereo not given)"
value_measured = "> 100 µM"

[[record]]
compound = "NC(N)=NS(=O)(=O)c1ccc(NCCc2c3ccccc3nc3ccccc23)cc1"
value_measured = "> 100 µM"


* * *

Measured TGI values are reported for all entries that follow.
- Test system: OVCAR-4 ovarian
- ASSAY_COMMENT: NCI tumour cell line growth inhibition, 48 h
RESULT_TYPE: TGI

[[record]]
compound = "O=C1CSC(c2cccc([N+](=O)[O-])c2)N1c1ccc(-n2c(-c3ccccc3)nc3ccccc3c2=O)cc1 (configuration not stated)"
measured_target = "OVCAR-4 ovarian"
result_type = "TGI"
value_measured = "> 100 µM"

[[record]]
compound = "O=c1cccccc1[O-].O=c1cccccc1[O-].O=c1cccccc1[O-].[La+3]"
measured_target = "OVCAR-4 ovarian"
result_type = "TGI"
value_measured = "> 100 µM"

[[record]]
compound = "Cn1c2ccccc2c(=O)c2cccc(C(=O)NC(CCC(N)=O)C(=O)O)c21 (configuration not stated)"
measured_target = "OVCAR-4 ovarian"
result_type = "TGI"
value_measured = "> 100 µM"

[[record]]
compound = "C=CCc1cccc2cc(C(=O)Nc3ccccn3)c(=N)oc12"
measured_target = "OVCAR-4 ovarian"
result_type = "TGI"
value_measured = "> 100 µM"

[[record]]
compound = "CC(=O)Nc1ccc(/C=C/C(=O)N2CC(CCl)c3c2cc(N)c2ccccc32)cc1 (configuration not stated)"
measured_target = "OVCAR-4 ovarian"
result_type = "TGI"
value_measured = "9.18 µM"

[[record]]
compound = "C=C(C)[C@@H]1CCC2=C[C@H](OC2=O)[C@@]2(C)C[C@@H]2C2=CC(C)=C(O2)[C@H]1O"
measured_target = "OVCAR-4 ovarian"
result_type = "TGI"
value_measured = "> 75 µM"

[[record]]
compound = "CCCCCCCCCCCCC(O)[C@H]1CC[C@H](C(O)CCCCCC(=O)CCCCC2CC(C(C)=O)C(=O)O2)O1 (some centres not stated)"
measured_target = "OVCAR-4 ovarian"
result_type = "TGI"
value_measured = "39.4 µM"

[[record]]
compound = "C=CCC1C(=O)CC2(C)CC(=O)C(CC=C)C12C (configuration not stated)"
measured_target = "OVCAR-4 ovarian"
result_type = "TGI"
value_measured = "> 100 µM"

[[record]]
compound = "O=c1/c(=C/c2ccc(-c3ccc(Cl)cc3Cl)o2)sc2n1[C@@H](c1ccc(Cl)cc1)C=C(c1cc(F)c(Cl)cc1Cl)N=2"
measured_target = "OVCAR-4 ovarian"
result_type = "TGI"
value_measured = "> 100 µM"

[[record]]
compound = "CCCCn1c2c(n(CCCC)c1=S)-c1c(n(CCCC)c(=S)n1CCCC)SSc1c(n(CCCC)c(=S)n1CCCC)-c1c(n(CCCC)c(=S)n1CCCC)SSc1c(n(CCCC)c(=S)n1CCCC)-c1c(n(CCCC)c(=S)n1CCCC)SS2"
measured_target = "OVCAR-4 ovarian"
result_type = "TGI"
value_measured = "> 19.7 µM"

[[record]]
compound = "CN(C)c1ccc(/C=c2\\sc3nc4ccccc4n3c2=O)cc1"
measured_target = "OVCAR-4 ovarian"
result_type = "TGI"
value_measured = "> 100 µM"

[[record]]
compound = "COI1NC(=O)c2ccccc21"
measured_target = "OVCAR-4 ovarian"
result_type = "TGI"
value_measured = "> 100 µM"

[[record]]
compound = "Cc1cc2c([nH]c3ccccc32)c2c1OC(C)(C)C1C3CC(C)(C)Oc4c(C)cc5c6ccccc6n(c5c43)C21 (configuration not stated)"
measured_target = "OVCAR-4 ovarian"
result_type = "TGI"
value_measured = "> 100 µM"

[[record]]
compound = "C=C1CCC([N+](=O)[O-])[C@](C)(N=O)CC[C@@H]2C1CC2(C)C (some centres not stated)"
measured_target = "OVCAR-4 ovarian"
result_type = "TGI"
value_measured = "84.6 µM"

[[record]]
compound = "CCOC(=O)c1c(N2CCOCC2)[nH]c(=O)c(C(c2ccco2)c2c(O)c(C(=O)OCC)c(N3CCOCC3)[nH]c2=O)c1O"
measured_target = "OVCAR-4 ovarian"
result_type = "TGI"
value_measured = "> 100 µM"

[[record]]
compound = "CCN(CC)c1ccc(N=Nc2ccc(-c3nc4ccc[n+](C)c4o3)cc2)cc1"
measured_target = "OVCAR-4 ovarian"
result_type = "TGI"
value_measured = "25.2 µM"

[[record]]
compound = "COC(=O)[C@@H](C)C[C@H](Cc1ccccc1)NC(=O)c1csc([C@@H](C[C@H](C(C)C)N(C)C(=O)[C@@H](NC(=O)[C@H]2CCCCN2C)C2CC2)OC(C)=O)n1"
measured_target = "OVCAR-4 ovarian"
result_type = "TGI"
value_measured = "> 16.5 µM"

